- protocol summary: Pharmacokinetics in mice after single s.c. or oral dose
- Type: in vivo, female CD1 mice
- condition parameters: female, CD1, mouse, oral, 40 mg/kg, single dose, plasma
Recorded Cmax values for a group of molecules are listed next.
// units = nM; emit number, no label

query_smiles=C[N+]1(CCCCCCOc2ccc(C(c3ccc(Cl)cc3)=C3C4C[C@H]5C[C@@H](C4)C[C@H]3C5)cc2)CCCC1 scale_unit=nM quantitative_readout=400

Data request: Bench note: what Cmax did CC[N+](C)(CC)CCCCCCOc1ccc(C(=C2C3CC4CC(C3)CC2C4)c2ccc(OCCCCCC[N+](C)(CC)CC)cc2)cc1 show?
Data returned: 100

Data request: Bench note: what Cmax did Clc1ccc(C(=C2C3CC4CC(C3)CC2C4)c2ccc(OCCCCCCN3CCCC3)cc2)cc1 show?
Data returned: 2380

Data request: Bench note: what Cmax did CCN(CC)CCCCCCOc1ccc(C(c2ccc(OCCCCCCN(CC)CC)cc2)=C2[C@H]3C[C@@H]4C[C@@H](C[C@H]2C4)C3)cc1 show?
Data returned: 110

---

- protocol summary: Pharmacokinetics in mice after single s.c. or oral dose
- Assay type: in vivo, female CD1 mice
- condition parameters: female, CD1, mouse, sc, 60 mg/kg, single dose, plasma
Response field label: string, one of label 1 (AUC strictly below 20 µM·h) or label 0.

Reference set (5 entries):
query_smiles=c1cc(C(=C2C3CC4CC(C3)CC2C4)c2ccc(OCCCCCCN3CCCC3)cc2)ccc1OCCCCCCN1CCCC1 assigned_label="label 1"
query_smiles=C[N+]1(CCCCCCOc2ccc(C(=C3C4CC5CC(C4)CC3C5)c3ccc(OCCCCCC[N+]4(C)CCCCC4)cc3)cc2)CCCCC1 assigned_label="label 0"
query_smiles=c1cc(C(c2ccc(OCCCCCCN3CCCCC3)cc2)=C2[C@H]3C[C@@H]4C[C@@H](C[C@H]2C4)C3)ccc1OCCCCCCN1CCCCC1 assigned_label="label 1"
query_smiles=c1cc(C(=C2C3CC4CC(C3)CC2C4)c2ccc(OCCCCCCN3CCCCCC3)cc2)ccc1OCCCCCCN1CCCCCC1 assigned_label="label 1"
query_smiles=C[N+]1(CCCCCCOc2ccc(C(=C3C4CC5CC(C4)CC3C5)c3ccc(OCCCCCC[N+]4(C)CCCCCC4)cc3)cc2)CCCCCC1 assigned_label="label 0"

Shifting focus to the compound that follows.
Data request: Consider the compound C[N+]1(CCCCCCOc2ccc(C(=C3C4CC5CC(C4)CC3C5)c3ccc(OCCCCCC[N+]4(C)CCCC4)cc3)cc2)CCCC1 . Is its AUC strictly less than 20 µM·h?
Data returned: label 0

---

- protocol summary: Pharmacokinetics in mice after single s.c. or oral dose
- Type: in vivo, female CD1 mice
- condition parameters: female, CD1, mouse, oral, 40 mg/kg, single dose, plasma
Recorded half-life values for a group of molecules are listed next.
// units = min; emit number, no label

Consider the reported half-life for these molecules:
query_smiles=C[N+]1(CCCCCCOc2ccc(C(c3ccc(Cl)cc3)=C3C4C[C@H]5C[C@@H](C4)C[C@H]3C5)cc2)CCCC1 property=half-life scale_unit=min quantitative_readout=348
query_smiles=Clc1ccc(C(=C2C3CC4CC(C3)CC2C4)c2ccc(OCCCCCCN3CCCC3)cc2)cc1 property=half-life scale_unit=min quantitative_readout=1730

Then this molecule:
Data request: Bench note: what half-life did CCN(CC)CCCCCCOc1ccc(C(c2ccc(OCCCCCCN(CC)CC)cc2)=C2[C@H]3C[C@@H]4C[C@@H](C[C@H]2C4)C3)cc1 show?
Data returned: 1210

---

- protocol summary: Pharmacokinetics in mice after single s.c. or oral dose
- Assay type: in vivo, female CD1 mice
- condition parameters: female, CD1, mouse, oral, 40 mg/kg, single dose, plasma
property: AUC (µM·h)
// units = µM·h; emit number, no label

compound="Clc1ccc(C(=C2C3CC4CC(C3)CC2C4)c2ccc(OCCCCCCN3CCCC3)cc2)cc1 [NB-55]" quantitative_readout=35.7
compound="CCN(CC)CCCCCCOc1ccc(C(c2ccc(OCCCCCCN(CC)CC)cc2)=C2[C@H]3C[C@@H]4C[C@@H](C[C@H]2C4)C3)cc1 [NB-51]" quantitative_readout=1.81

Then this compound:
Data request: Bench note: what AUC did C[N+]1(CCCCCCOc2ccc(C(c3ccc(Cl)cc3)=C3C4C[C@H]5C[C@@H](C4)C[C@H]3C5)cc2)CCCC1 [NB-63] show?
Data returned: 1.67

---

- protocol summary: Pharmacokinetics in mice after single s.c. or oral dose
- Type: in vivo, female CD1 mice
- condition parameters: female, CD1, mouse, sc, 60 mg/kg, single dose, plasma
Recorded Cmax values for a group of compounds are listed next.
// units = nM; emit number, no label

Consider the reported Cmax for these compounds:
compound="C[N+]1(CCCCCCOc2ccc(C(=C3C4CC5CC(C4)CC3C5)c3ccc(OCCCCCC[N+]4(C)CCCC4)cc3)cc2)CCCC1 [NB-68]" scale_unit=nM quantitative_readout=7120
compound="c1cc(C(=C2C3CC4CC(C3)CC2C4)c2ccc(OCCCCCCN3CCCC3)cc2)ccc1OCCCCCCN1CCCC1 [NB-65]" scale_unit=nM quantitative_readout=580
compound="C[N+]1(CCCCCCOc2ccc(C(=C3C4CC5CC(C4)CC3C5)c3ccc(OCCCCCC[N+]4(C)CCCCC4)cc3)cc2)CCCCC1 [NB-71]" scale_unit=nM quantitative_readout=9520
compound="C[N+]1(CCCCCCOc2ccc(C(=C3C4CC5CC(C4)CC3C5)c3ccc(OCCCCCC[N+]4(C)CCCCCC4)cc3)cc2)CCCCCC1 [NB-73]" scale_unit=nM quantitative_readout=5300
compound="c1cc(C(c2ccc(OCCCCCCN3CCCCC3)cc2)=C2[C@H]3C[C@@H]4C[C@@H](C[C@H]2C4)C3)ccc1OCCCCCCN1CCCCC1 [NB-70]" scale_unit=nM quantitative_readout=270

Then this compound:
Data request: Bench note: what Cmax did c1cc(C(=C2C3CC4CC(C3)CC2C4)c2ccc(OCCCCCCN3CCCCCC3)cc2)ccc1OCCCCCCN1CCCCCC1 [NB-72] show?
Data returned: 370

---

- protocol summary: Pharmacokinetics in mice after single s.c. or oral dose
- Format: in vivo, female CD1 mice
- condition parameters: female, CD1, mouse, oral, 60 mg/kg, single dose, plasma
Recorded half-life values for a group of molecules are listed next.
Include the unit after the number when you answer.

Consider the reported half-life for these molecules:
query_smiles=C[N+]1(CCCCCCOc2ccc(C(=C3C4CC5CC(C4)CC3C5)c3ccc(OCCCCCC[N+]4(C)CCCCCC4)cc3)cc2)CCCCCC1 result="40.3 h"
query_smiles=c1cc(C(c2ccc(OCCCCCCN3CCCCC3)cc2)=C2[C@H]3C[C@@H]4C[C@@H](C[C@H]2C4)C3)ccc1OCCCCCCN1CCCCC1 result="51.2 h"
query_smiles=c1cc(C(=C2C3CC4CC(C3)CC2C4)c2ccc(OCCCCCCN3CCCCCC3)cc2)ccc1OCCCCCCN1CCCCCC1 result="60.6 h"

Then this molecule:
Data request: Bench note: what half-life did C[N+]1(CCCCCCOc2ccc(C(=C3C4CC5CC(C4)CC3C5)c3ccc(OCCCCCC[N+]4(C)CCCC4)cc3)cc2)CCCC1 show?
Data returned: 6.2 h

---

- protocol summary: Pharmacokinetics in mice after single s.c. or oral dose
- Format: in vivo, female CD1 mice
- condition parameters: female, CD1, mouse, oral, 60 mg/kg, single dose, plasma
property: log10 of AUC (log10 of the value in µM·h)
Hello, just confirming the data are log10 of AUC with units of µM·h.

compound="C[N+]1(CCCCCCOc2ccc(C(=C3C4CC5CC(C4)CC3C5)c3ccc(OCCCCCC[N+]4(C)CCCCCC4)cc3)cc2)CCCCCC1 [NB-73]" property="log10 of AUC" quantitative_readout=-1.82

Data request: Bench note: what log10 of AUC did c1cc(C(=C2C3CC4CC(C3)CC2C4)c2ccc(OCCCCCCN3CCCCCC3)cc2)ccc1OCCCCCCN1CCCCCC1 [NB-72] show?
Data returned: 1.05

Data request: Bench note: what log10 of AUC did c1cc(C(c2ccc(OCCCCCCN3CCCCC3)cc2)=C2[C@H]3C[C@@H]4C[C@@H](C[C@H]2C4)C3)ccc1OCCCCCCN1CCCCC1 [NB-70] show?
Data returned: 0.92

Data request: Bench note: what log10 of AUC did c1cc(C(=C2C3CC4CC(C3)CC2C4)c2ccc(OCCCCCCN3CCCC3)cc2)ccc1OCCCCCCN1CCCC1 [NB-65] show?
Data returned: 0.51

Data request: Bench note: what log10 of AUC did C[N+]1(CCCCCCOc2ccc(C(=C3C4CC5CC(C4)CC3C5)c3ccc(OCCCCCC[N+]4(C)CCCC4)cc3)cc2)CCCC1 [NB-68] show?
Data returned: -0.54

Data request: Bench note: what log10 of AUC did C[N+]1(CCCCCCOc2ccc(C(=C3C4CC5CC(C4)CC3C5)c3ccc(OCCCCCC[N+]4(C)CCCCC4)cc3)cc2)CCCCC1 [NB-71] show?
Data returned: -1.10

Source: paper PMC6884575
